experiment: Displacement of [3H]epibatidine from alpha3beta4 nAChR in calf adrenal membranes fraction after 90 mins by liquid scintillation counting analysis; format: cell membranes, Bos taurus
pKi: −log10 of the molar value.
observable: pKi

In: Need pKi of "O=C(c1ccc2ncccc2c1)N1C[C@@H]2CNC[C@@H](C2)C1" , thanks.
Out: < 5.30

In: Need pKi of "N#Cc1cccc(S(=O)(=O)N2C[C@@H]3CNC[C@@H](C3)C2)c1" , thanks.
Out: < 5.00

In: Need pKi of "O=C(c1ccc(Cl)nc1)N1C[C@@H]2CNC[C@@H](C2)C1" , thanks.
Out: < 6.00
